Biological target: IKZF1 (Homo sapiens (Human), UniProt Q13422+Q96SW2)
Sequence (Q13422 whole entry): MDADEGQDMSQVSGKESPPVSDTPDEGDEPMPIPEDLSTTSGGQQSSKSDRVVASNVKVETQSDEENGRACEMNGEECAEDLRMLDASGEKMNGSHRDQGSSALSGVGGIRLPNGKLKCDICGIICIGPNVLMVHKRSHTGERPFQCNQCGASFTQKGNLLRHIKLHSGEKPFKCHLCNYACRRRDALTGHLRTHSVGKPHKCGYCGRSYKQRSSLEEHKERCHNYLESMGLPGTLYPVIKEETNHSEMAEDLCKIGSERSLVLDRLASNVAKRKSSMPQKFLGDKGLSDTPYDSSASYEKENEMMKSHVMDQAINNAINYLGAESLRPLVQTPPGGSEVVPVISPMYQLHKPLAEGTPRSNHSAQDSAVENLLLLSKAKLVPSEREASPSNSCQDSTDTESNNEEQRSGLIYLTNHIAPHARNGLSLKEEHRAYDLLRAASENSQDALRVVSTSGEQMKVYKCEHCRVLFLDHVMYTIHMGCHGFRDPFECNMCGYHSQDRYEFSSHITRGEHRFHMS
Sequence (Q96SW2 whole entry): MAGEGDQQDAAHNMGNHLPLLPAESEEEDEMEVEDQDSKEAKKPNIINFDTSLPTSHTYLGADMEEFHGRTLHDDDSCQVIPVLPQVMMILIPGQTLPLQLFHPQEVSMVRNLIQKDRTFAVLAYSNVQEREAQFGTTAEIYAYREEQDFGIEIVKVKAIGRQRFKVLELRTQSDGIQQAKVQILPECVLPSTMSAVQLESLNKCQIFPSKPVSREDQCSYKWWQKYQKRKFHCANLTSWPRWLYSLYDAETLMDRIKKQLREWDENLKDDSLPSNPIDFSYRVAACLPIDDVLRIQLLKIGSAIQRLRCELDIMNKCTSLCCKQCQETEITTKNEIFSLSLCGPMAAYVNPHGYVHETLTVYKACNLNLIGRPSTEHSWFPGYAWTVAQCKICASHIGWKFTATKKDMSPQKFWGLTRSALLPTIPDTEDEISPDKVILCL
Sequence (Q16531 2-1140 partner): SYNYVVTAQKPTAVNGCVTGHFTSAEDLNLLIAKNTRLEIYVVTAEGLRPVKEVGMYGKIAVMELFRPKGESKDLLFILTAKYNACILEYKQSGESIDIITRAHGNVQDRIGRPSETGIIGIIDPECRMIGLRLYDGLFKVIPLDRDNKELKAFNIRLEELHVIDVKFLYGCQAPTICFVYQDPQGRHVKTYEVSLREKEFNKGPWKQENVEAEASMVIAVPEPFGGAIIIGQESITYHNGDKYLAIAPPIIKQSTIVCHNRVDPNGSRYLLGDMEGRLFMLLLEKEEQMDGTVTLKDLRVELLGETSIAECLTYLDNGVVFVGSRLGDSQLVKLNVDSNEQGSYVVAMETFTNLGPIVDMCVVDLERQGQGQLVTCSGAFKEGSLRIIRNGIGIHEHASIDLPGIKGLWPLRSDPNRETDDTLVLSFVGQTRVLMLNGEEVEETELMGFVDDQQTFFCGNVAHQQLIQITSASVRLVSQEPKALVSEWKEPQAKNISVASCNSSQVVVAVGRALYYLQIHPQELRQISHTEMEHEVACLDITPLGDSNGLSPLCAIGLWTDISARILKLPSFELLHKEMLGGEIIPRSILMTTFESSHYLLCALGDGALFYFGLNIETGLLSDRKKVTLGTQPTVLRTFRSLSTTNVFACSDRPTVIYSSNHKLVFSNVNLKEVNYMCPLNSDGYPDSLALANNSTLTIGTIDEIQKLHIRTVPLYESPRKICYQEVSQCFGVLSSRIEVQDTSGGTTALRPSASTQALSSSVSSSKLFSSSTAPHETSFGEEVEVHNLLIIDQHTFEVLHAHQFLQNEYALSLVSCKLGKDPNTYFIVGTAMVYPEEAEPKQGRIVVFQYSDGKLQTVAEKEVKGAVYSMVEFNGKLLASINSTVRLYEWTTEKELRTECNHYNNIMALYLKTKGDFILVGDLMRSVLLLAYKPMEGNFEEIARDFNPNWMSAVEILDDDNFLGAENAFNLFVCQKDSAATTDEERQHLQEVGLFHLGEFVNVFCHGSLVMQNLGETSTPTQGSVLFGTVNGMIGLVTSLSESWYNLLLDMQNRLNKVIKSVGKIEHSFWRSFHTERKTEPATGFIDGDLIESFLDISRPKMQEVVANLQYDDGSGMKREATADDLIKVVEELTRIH
Assay: In vitro IKZF1 HiBit Assay (HEK293T Flp-in-HiBiT-IKZF1 stable cell line)
Type: cell-based
Conditions: HEK293T Flp-in-HiBiT-IKZF1 stable cell line, 6 hrs incubation; read-out: IKZF1 HiBit DC50
readout label: DC50

// known answers, use as guide
[
  {
    "molecule": "Cn1ccc2c(CN3CCC(C#N)CC3)cc(-c3ccc4c(c3)CN(C3CCC(=O)NC3=O)C4=O)nc21 (stereo not shown)",
    "DC50": "1 to 10 µM"
  },
  {
    "molecule": "Nc1n[nH]c2c(CN3CC4COCC(C4)C3)cc(-c3ccc4c(c3)CN(C3CCC(=O)NC3=O)C4=O)nc12 (stereo not shown)",
    "DC50": "0.1 to 1 µM"
  },
  {
    "molecule": "CNc1n[nH]c2c(CN3CCCC3)cc(-c3ccc4c(c3)CN(C3CCC(=O)NC3=O)C4=O)nc12 (stereo not shown)",
    "DC50": "0.01 to 0.1 µM"
  }
]

Okay, next one:
Ask: Using the record for O=C1CCC(N2Cc3c(ccc(-c4nc5c(ccn5C5COC5)c(CN5CCCC5)c4Cl)c3F)C2=O)C(=O)N1 (stereo not shown) , report its DC50.
Reply: > 10 µM
